TARGET UNDER TEST: HSD17B13 (Homo sapiens (Human), UniProt Q7Z5P4)
Sequence (Q7Z5P4 other isoform, or with tags, fused parts or gaps): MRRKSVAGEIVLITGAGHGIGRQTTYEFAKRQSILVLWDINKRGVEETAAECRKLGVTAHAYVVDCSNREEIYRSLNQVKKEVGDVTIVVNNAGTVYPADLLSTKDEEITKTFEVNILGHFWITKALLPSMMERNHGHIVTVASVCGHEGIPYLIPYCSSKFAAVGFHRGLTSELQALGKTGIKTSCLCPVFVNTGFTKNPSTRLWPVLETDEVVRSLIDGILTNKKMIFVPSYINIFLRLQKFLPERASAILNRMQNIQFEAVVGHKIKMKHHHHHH
METHOD DESCRIPTION: HSD17B13 enzymatic inhibition assay (150 nM or 50 nM HSD17B13)
Format: biochemical
CONDITION DETAILS: 50 nM HSD17B13; read-out: Inhibition of 50 nM of HSD17B13 IC50
ASSAY METRIC: log10 of IC50 (log10 of the value in nM)
# log10 transformed; quantity=IC50; unit=nM

Some compounds with recorded log10 of IC50:
In: May I ask what log10 of IC50 has been recorded for Cc1ccc2c(c1)C(NC(=O)c1ccc(C(F)(F)F)[nH]c1=O)CCN2 (centres unmarked) [Compound 339] ?
Out: 3.45

In: Would you kindly share the measured log10 of IC50 for Cc1ccc2c(c1)C(NC(=O)c1ccc(C(F)(F)F)[nH]c1=O)CO2 (centres unmarked) [Compound 408] ?
Out: 3.39

In: Please give the measured log10 of IC50 for this compound: O=C(NC1CCc2cc(Cl)ccc21)c1ccc(C(F)(F)F)[nH]c1=O (centres unmarked) [Compound 131]
Out: 3.26

// below: log10 of IC50 requested for another compound
In: Returns the measured log10 of IC50 for the input compound. Input: CCc1cccc(C(NC(=O)c2ccc(C(F)(F)F)[nH]c2=O)c2ccc(C)cc2)c1 (centres unmarked) [Compound 444]
Out: 2.23
